Data provenance is patent US5807535A.

Assay: Serum stability of 99mTc complex of (1)
Type: in vitro ADME
Details: first hour at 37° C., read-out: technetium lost from the chelator in serum
reported property: degraded at 1 h

-- ask Identify degraded at 1 h associated with the compound O=C(O)CN(CCN(CC(=O)O)CC(=O)Nc1ccccc1O)CC(=O)Nc1ccccc1O
-- reply ≤ 15%

---

Can you tell me biodistribution spleen for the items I'm about to list?
Assay: Biodistribution of 99mTc complexes in mice
Assay type: in vivo, Balb/c mice
Settings: 10 min
Answers are plain numbers, in % Injected dose.

Solved entries (count: 4):
CC(C)(C)c1ccc(O)c(NC(=O)CN(CCN(CC(=O)O)CC(=O)Nc2cc(C(C)(C)C)ccc2O)CC(=O)O)c1 0.07
Nc1ccc(O)c(NC(=O)CN(CCN(CC(=O)O)CC(=O)Nc2cc(N)ccc2O)CC(=O)O)c1 0.11
Cc1cc(C)c(O)c(NC(=O)CN(CCN(CC(=O)O)CC(=O)Nc2cc(C)cc(C)c2O)CC(=O)O)c1 0.07
O=C(O)CN(CCN(CC(=O)O)CC(=O)Nc1ccccc1O)CC(=O)Nc1ccccc1O 0.06

// moving on: another record for biodistribution spleen
-- ask Identify biodistribution spleen associated with the compound O=C(O)CN(CCN(CC(=O)O)CC(=O)Nc1ccc(Cl)cc1O)CC(=O)Nc1ccc(Cl)cc1O
-- reply 0.06
